- Measured target: T1, purified HLA-B*0801 (human)
- T1 construct: Purified MHC class I molecule incubated with human b2m; not officially part of the HLA-B7 supertype
- Experiment summary: competition radioimmunoassay on purified HLA, radiolabeled standard peptide
pIC50: −log10 of the molar value.
Recorded endpoint: pIC50

Binder | Value observed
LPGTTLTAL (Synthetic 9mer peptide of human telomerase reverse transcriptase) [hTRT peptide p1107 (LPGTTLTAL)] | 6.72

a. FVRACLRRL (Synthetic 9mer peptide of human telomerase reverse transcriptase) [hTRT peptide p464 (FVRACLRRL)]
b. LPSDFKTIL (Synthetic 9mer peptide of human telomerase reverse transcriptase) [hTRT peptide p1123 (LPSDFKTIL)]
Inquiry: Decide: a or b , by lowest recorded pIC50. Selection: enter the item's label.
Reply text: a

Every entry's value here was drawn from patent US20090202499A1.
